- Experimental target: PDE4
- Test name: PDE4 assay: [3H] cAMP Scintillation Proximity Assay (SPA) of phosphodiesterase activity
- Measurement parameters: yeast extract of recombinant PDE4 enzyme, 30 nM [3H] cAMP, 1 h at room temperature, pH 7.5
- Description: Measurement of Phosphodiesterase Activity was done using a [3H] cAMP Scintillation Proximity Assay (SPA) (GE Healthcare). […] Plates were shaken for 1 h at room temperature and the incubation was terminated by adding 50 µL (0.5 mg /well) of SPA ytrium silicate beads (RPNQ 0150; GE Healthcare) in the presence of zinc sulfate. Plates were stored overnight in the dark and read on a TRILUX microtiter plate reader (Perkin Elmer).
Observable: IC50 (nM)

Molecule | IC50 (nM)
NC(=O)c1ccc(Nc2cc(-c3ccccc3)nc3c2C(=O)NCC3)cc1 [Example 18] | 1.5
COc1cccc(Nc2cc(C3CC3)nc3c2C(=O)NCC3)c1 [Example 33] | 9
O=C1NCCc2nc(-c3ccccc3)cc(Nc3cccc4cnccc34)c21 [Example 37] | 14
O=C1NCCc2nc(-c3ccccc3)cc(NCc3ccncc3)c21 [Example 17] | 25
COc1cccc(Nc2cc(-c3cccc(Sc4cccc(OC)c4)c3)nc3c2C(=O)NCC3)c1 [Example 16] | 1.6

(A) O=C(NC1CC1)c1cccc(-c2cccc(-c3cc(Nc4cccc5c4ccc[n+]5[O-])c4c(n3)CCNC4=O)c2)c1 [Example 56]
(B) COc1cccc(Nc2cc(-c3ccccc3)nc3c2C(=O)NC(C)C3)c1 (stereo not drawn) [Example 26]
(C) CN(C)CCCNC(=O)c1cccc(-c2cccc(-c3cc(Nc4cccc5ncccc45)c4c(n3)CCNC4=O)c2)c1 [Example 59]
(D) O=C1NCCc2nc(-c3ccccc3)cc(Nc3ccc(C[C@@H](O)CO)cc3)c21 [Example 47]
(E) O=C1NCCc2nc(-c3ccccc3)cc(Nc3cccc4c3ccc[n+]4[O-])c21 [Example 51]
stdin: Reorder the items by IC50, least to greatest. Answer by writing out the labels in the requested order.
stdout: A, C, E, D, B
(A: 0.05 nM, C: 0.105 nM, E: 0.43 nM, D: 9 nM, B: 117 nM)

(P) COc1cccc(Nc2cc(-c3ccccc3OC)nc3c2C(=O)NCC3)c1 [Example 9]
(Q) COc1cccc(Nc2cc(-c3cccc(-c4ccc(C(=O)O)cc4)c3)nc3c2C(=O)NCC3)c1 [Example 13]
stdin: Determine, for P and Q , which has the greater value of IC50. Respond with the label that goes with your answer.
stdout: P
(P: 32 nM, Q: 0.34 nM)

(A) O=C(NC1CC1)c1cccc(-c2cccc(-c3cc(Nc4cccc5ncccc45)c4c(n3)CCNC4=O)c2)c1 [Example 49]
(B) COc1cc(Nc2cc(-c3ccccc3)nc3c2C(=O)NCC3)ccc1C(=O)O [Example 19]
stdin: Hi! Which is lower in terms of IC50, the first one A or the second one B ? Respond with the label that goes with your answer.
stdout: A

(I) COc1cccc(Nc2cc(-c3cccc(OC)c3)nc3c2C(=O)NCC3)c1 [Example 8]
(II) COc1cccc(Nc2cc(-c3ccccc3)nc3c2C(=O)NCC3)c1 [Example 1]
stdin: Hi! Which is lower in terms of IC50, the first one I or the second one II ? Respond with the label that goes with your answer.
stdout: II
(II: 1.6 nM, I: 8 nM)
